Listed next: entries and their corresponding log10(EC50).
- target-entity: UniProt:O14842
- Sequence (O14842 whole entry): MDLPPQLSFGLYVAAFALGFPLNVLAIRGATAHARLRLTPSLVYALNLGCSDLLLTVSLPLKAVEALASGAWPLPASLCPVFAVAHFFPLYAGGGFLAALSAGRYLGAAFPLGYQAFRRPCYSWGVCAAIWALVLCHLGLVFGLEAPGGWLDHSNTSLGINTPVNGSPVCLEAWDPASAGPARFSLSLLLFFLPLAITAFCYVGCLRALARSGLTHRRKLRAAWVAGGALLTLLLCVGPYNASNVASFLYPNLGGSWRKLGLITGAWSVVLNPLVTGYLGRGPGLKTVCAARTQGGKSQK
- assay-explanation: Agonist activity at human FFA1 transfected in 1321N1 cells assessed as calcium mobilization by microplate assay
- Format: functional, cell-based
readout-name: log10(EC50) (log10 of the value in nM)

INSERT INTO assay_data (compound, measurement) VALUES
  ('N#Cc1cccc(COc2ccc(CCC(=O)O)cc2)c1', 2.72),
  ('COc1ccccc1-c1cccc(COc2ccc(CCC(=O)O)cc2)c1', 2.08),
  ('CC(Oc1ccc(CCC(=O)O)cc1)c1ccccc1 (stereo unspecified)', 3.52),
  ('O=C(O)CCc1ccc(OCc2ccccc2)cc1', 2.66),
  ('O=C(O)CCc1ccc(OCc2ccccc2)c(I)c1', 4.10),
  ('O=C(O)CCc1ccc(NCc2ccc(Oc3ccccc3)cc2)cc1', 2.26),
  ('O=C(O)CCc1ccc(NCc2cccc(-c3ccccc3)c2)cc1', 1.73),
  ('O=C(O)CCc1ccc(CCc2ccccc2)cc1', 3.56),
  ('Cc1ccc(-c2cccc(CNc3ccc(CCC(=O)O)cc3)c2)cc1', 2.10),
  ('O=C(O)CCc1ccc(OCc2ccccc2Br)cc1', 2.65),
  ('Cc1cc(Oc2ncc(C(F)(F)F)cc2Cl)ccc1CC1SC(=O)NC1=O (stereo unspecified)', 2.25),
  ('O=C(O)CCc1ccc(NCc2ccccc2-c2ccccc2)cc1', 3.03),
  ('Cc1ccc(-c2cccc(COc3ccc(CCC(=O)O)cc3)c2)cc1', 2.69),
  ('O=C(O)CCc1ccc2oc(-c3ccccc3)cc2c1', 3.39),
  ('O=C(O)CCc1ccc(OCc2ccc(-c3ccccc3)cc2)cc1', 2.96),
  ('O=C(O)CCc1ccc(OCc2ccc(Oc3ccccc3)cc2)cc1', 2.31),
  ('O=C(O)CCc1ccc(NCc2ccc(-c3ccccc3)cc2)cc1', 2.62),
  ('COc1ccccc1-c1cccc(CNc2ccc(CCC(=O)O)cc2)c1', 1.84),
  ('O=C(O)CCc1ccc(OCc2cccc(C(F)(F)F)c2)cc1', 1.92),
  ('O=C(O)CCc1ccc(NCc2cccc(Oc3ccccc3)c2)cc1', 1.46),
  ('O=C(O)CCc1ccc(C#Cc2ccccc2)cc1', 2.30),
  ('O=C(O)CCc1ccc(OCc2ccc(Br)cc2)cc1', 2.74),
  ('O=C(O)CCc1ccc(NCc2cccc(C(F)(F)F)c2)cc1', 2.27),
  ('Cc1ccccc1-c1cccc(COc2ccc(CCC(=O)O)cc2)c1', 1.70),
  ('O=C(O)CCc1ccc(NCc2ccccc2)cc1', 2.88),
  ('O=C(O)CCc1ccc(CNc2ccccc2)cc1', 4.33);

All values here come from ChEMBL document CHEMBL1773039.
